PROTOCOL NOTES: Quantitative High-Throughput drug screen in 47 multiple myeloma cell lines against the NCATS MIPE library collection: KMS26_JCRB cell viability assay (AID 1918975); further: nearly all actives have a fitted effect of over 45% in size
MEASUREMENT CONTEXT: KMS26 myeloma cells viability, CellTiter-Glo ATP, 48 h; series mostly up to 45.8 µM
Records with an inconclusive call do not appear. Calls of active or inactive are those of the source. The call rests on the fitted dose curve; in most records, active means well fitted cell-killing curve with a large enough effect; inconclusive means small, poorly fitted or top-dose-only effect, or effect the other way; inactive means no such curve, though single readings can be large or run the other way.
Entry note: the call must match one of Y = active, N = inactive

Input: Recorded call for Cc1onc(-c2ccccc2)c1C(=O)N[C@@H]1C(=O)N2[C@@H](C(=O)O)C(C)(C)S[C@@H]12 ?
Output: N

Input: Recorded call for CC(C)(O)[C@H]1CC[C@@](C)([C@H]2[C@@H](O)C[C@@]3(C)[C@@H]4C[C@H](O[C@@H]5O[C@H](CO)[C@@H](O)[C@H](O)[C@@H]5O)[C@H]5C(C)(C)[C@@H](O[C@@H]6OC[C@@H](O)[C@H](O)[C@@H]6O)CC[C@@]56C[C@@]46CC[C@]23C)O1 ?
Output: N

Input: Recorded call for COc1ccc(S(=O)(=O)Nc2cccnc2Nc2ccc(O)cc2)cc1 ?
Output: Y

Input: Recorded call for CS(=O)(=O)N1CCc2c(-c3cnc(N)nc3)nc(N3CCOCC3)nc21 ?
Output: Y

Input: Recorded call for O=C1NCCc2[nH]c(-c3ccncc3)cc21 ?
Output: Y

Input: Recorded call for NC1=N[C@H]2[C@H](CS[C@H]2CCCCC(=O)O)N1 ?
Output: N

Input: Recorded call for O=C(CCCCCCC(=O)Nc1cccnc1)NO ?
Output: Y

Input: Recorded call for C=CC1=C(C(=O)O)N2C(=O)[C@@H](NC(=O)C(=NO)c3csc(N)n3)[C@H]2SC1 ?
Output: N

###

PROTOCOL NOTES: Quantitative High-Throughput drug screen in 47 multiple myeloma cell lines against the NCATS MIPE library collection: U266_ATCC cell viability assay (AID 1919864); further: nearly all actives have a fitted effect of over 35% in size
MEASUREMENT CONTEXT: U266 myeloma viability, CellTiter-Glo ATP luminescence, 48 h; series mostly up to 45.8 µM
Results filed as inconclusive are left out. The source made the active and inactive calls. Calls come from the whole dose curve; as a rule, active = well fitted cell-killing curve with a large enough effect; inconclusive = small, poorly fitted or top-dose-only effect, or effect the other way; inactive = no such curve, though single readings can be large or run the other way.
Entry note: the call must match one of active, inactive

Input: Recorded call for CC(C)NC[C@@H](C(=O)N1CCN(c2ncnc3c2[C@H](C)C[C@H]3O)CC1)c1ccc(Cl)cc1 ?
Output: active

Input: Recorded call for C[C@H](O)[C@@H]1C(=O)N2C(C(=O)O)=C(S[C@@H]3CN[C@H](CNS(N)(=O)=O)C3)[C@@H](C)[C@@H]12 ?
Output: inactive

Input: Recorded call for C[C@]12CC[C@@H]3c4ccc(O)cc4CC[C@H]3[C@H]1CC[C@H]2O ?
Output: active

Input: Recorded call for N#Cc1c(C2CCNCC2)cc(-c2c(O)cccc2OCC2CC2)nc1N ?
Output: active

Input: Recorded call for CN(C)CC(=O)N1CCC(c2ccc(NC(=O)c3ncc(C#N)[nH]3)c(C3=CCCCC3)c2)CC1 ?
Output: active

Input: Recorded call for Cn1cc(C=CC(=O)c2cccc(F)c2)cc1C=CC(=O)NO ?
Output: active

Input: Recorded call for O=C(O)C=Cc1ccc(Cn2ccnc2)cc1 ?
Output: inactive

Input: Recorded call for N#CNC(=NCCCCCCOc1ccc(Cl)cc1)Nc1ccncc1 ?
Output: active

Input: Recorded call for COc1ccc(Nc2cc(-c3cnc(N)nc3)nc(N3CCOCC3)n2)cn1 ?
Output: active

Input: Recorded call for C[C@H](CCC(=O)O)[C@H]1CCC2C3C[C@H](O)[C@@H]4C[C@H](O)CC[C@]4(C)C3CC[C@@]21C (stereo partly drawn) ?
Output: inactive

Input: Recorded call for Cn1c(Nc2ccc(C(F)(F)F)cc2)nc2cc(Oc3ccnc(-c4ncc(C(F)(F)F)[nH]4)c3)ccc21 ?
Output: active

Input: Recorded call for NC(=O)c1ncn([C@@H]2O[C@H](CO)[C@@H](O)[C@@H]2O)c1O ?
Output: inactive

Input: Recorded call for C[C@H](NC(=O)Cc1cc(F)cc(F)c1)C(=O)N[C@H](C(=O)OC(C)(C)C)c1ccccc1 ?
Output: inactive

Input: Recorded call for C=CC(=O)Nc1cc(NC(=O)c2ccc(C)c(NC(=O)c3ccno3)c2)cc(C(F)(F)F)c1 ?
Output: active

Input: Recorded call for N#CC(=C(O)c1ccc(Cl)cc1Cl)c1nc2cc(Cl)ccc2c(=O)[nH]1 ?
Output: inactive

Input: Recorded call for C#CCC(Cc1cnc2nc(N)nc(N)c2n1)c1ccc(C(=O)N[C@@H](CCC(=O)O)C(=O)O)cc1 (stereo partly drawn) ?
Output: active

Input: Recorded call for C#C[C@]1(O)CC[C@@H]2[C@@H]3CCc4cc(O)ccc4[C@H]3CC[C@@]21C ?
Output: active

Input: Recorded call for COc1cc([C@@H]2c3cc4c(cc3[C@@H](O[C@@H]3O[C@@H]5CO[C@@H](c6cccs6)O[C@@H]5[C@H](O)[C@@H]3O)[C@H]3COC(=O)[C@H]23)OCO4)cc(OC)c1O ?
Output: active

###

PROTOCOL NOTES: Quantitative High-Throughput drug screen in 47 multiple myeloma cell lines against the NCATS MIPE library collection: JIM3_ECACC cell viability assay (AID 1918963; further: nearly all actives have a fitted effect of over 35% in size)
MEASUREMENT CONTEXT: JIM3 myeloma viability, CellTiter-Glo ATP, 48 h; series mostly up to 45.8 µM
Records with an inconclusive call do not appear. Activity calls are given as the source filed them. Calls come from the whole dose curve; as a rule, active = well fitted cell-killing curve with a large enough effect; inconclusive = small, poorly fitted or top-dose-only effect; inactive = no such curve, though single readings can be large or run the other way.
Entry note: the call must match one of True = active, False = inactive

Input: Recorded call for COc1cccc2c1C(=O)c1c(O)c3c(c(O)c1C2=O)C[C@@](O)(C(=O)CO)C[C@H]3O[C@H]1C[C@H](N)[C@H](O)[C@H](C)O1 ?
Output: True

Input: Recorded call for Cc1cnn(C)c1C(=O)Nc1cc(Nc2ccc3c(C=Cc4ccccn4)n[nH]c3c2)ccc1F ?
Output: True

Input: Recorded call for CCC[C@H]1C[C@H](C(=O)N[C@@H]([C@@H]2O[C@@H](SC)[C@@H](O)[C@@H](O)[C@@H]2O)[C@H](C)Cl)N(C)C1 ?
Output: False

Input: Recorded call for O=C(O)C=Cc1ccc(Cn2ccnc2)cc1 ?
Output: False

Input: Recorded call for O=C1c2c(O)cccc2[C@@H]([C@@H]2O[C@H](CO)[C@@H](O)[C@H](O)[C@H]2O)c2cc(CO)cc(O)c21 ?
Output: False

Input: Recorded call for CC1(C)O[C@@H]2C[C@H]3[C@@H]4CCC5=CC(=O)C=C[C@]5(C)[C@@H]4[C@@H](O)C[C@]3(C)[C@]2(C(=O)CO)O1 ?
Output: False

Input: Recorded call for C[C@@H]1CC[C@@]2(OC1)OC1CC3C4CC=C5CC(O)CCC5(C)C4CCC3(C)C1[C@@H]2C (stereo partly drawn) ?
Output: False

Input: Recorded call for Cc1noc(-c2ccc(CSCCC(=O)O)cc2)c1NC(=O)OC(C)c1ccccc1Cl (stereo not drawn) ?
Output: False

###

PROTOCOL NOTES: qHTS Screen of the MIPE 4.0 Collection Against Ewings Sarcoma (TC32) (AID 1259256); further: nearly all actives have a fitted effect of over 45% in size
MEASUREMENT CONTEXT: TC32 Ewing sarcoma viability, CellTiter-Glo, 48 h; series mostly up to 45.8 µM
Inconclusive results are not listed. Activity calls are given as the source filed them. Calls follow the shape of the dose curve; as a rule, active = well fitted inhibition curve with a large enough effect; inconclusive = small, poorly fitted or top-dose-only effect; inactive = no such curve, though single readings can be large or run the other way.
Entry note: the call must match one of 1 = active, 0 = inactive

Input: Recorded call for CCOc1cc2c(c(F)c1OCC)C(=N)N(CC(=O)c1cc(N3CCOCC3)c(OC)c(C(C)(C)C)c1)C2 ?
Output: 1

Input: Recorded call for O=C(C=CC=Cc1ccc2c(c1)OCO2)N1CCCCC1 ?
Output: 0

Input: Recorded call for COc1ccc2c(c1OC)C(=O)OC2[C@H]1c2c(cc3c(c2OC)OCO3)CCN1C (some centres not stated) ?
Output: 0

Input: Recorded call for CC[C@H]1OC(=O)[C@H](C)[C@@H](O[C@H]2C[C@@](C)(OC)[C@@H](O)[C@H](C)O2)[C@H](C)[C@@H](O[C@@H]2O[C@H](C)C[C@H](N(C)C)[C@@H]2O)[C@](C)(OC)C[C@@H](C)C(=O)[C@H](C)[C@@H](O)[C@]1(C)O ?
Output: 0

Input: Recorded call for CC(C)(O)CC[C@@H](O)[C@](C)(O)[C@H]1CC[C@@]2(O)C3=CC(=O)[C@@H]4C[C@@H](O)[C@@H](O)C[C@]4(C)[C@@H]3CC[C@]12C ?
Output: 0

Input: Recorded call for c1ccc2c(Oc3nc(Nc4ccc(N5CCOCC5)cc4)c4ncn(C5CCCCC5)c4n3)cccc2c1 ?
Output: 0

Input: Recorded call for COc1ccc(C[C@@H](C)[C@@H](C)Cc2ccc(OC)c(OC)c2)cc1OC ?
Output: 0

###

PROTOCOL NOTES: qHTS profiling of the MIPE4 collection as inhibitors of Plasmodium falciparum (DD2) proliferation (Rep 2) (AID 743346)
MEASUREMENT CONTEXT: P. falciparum Dd2 in erythrocytes, SYBR Green DNA, 72 h; at 28.5 µM (top of the series) unless noted
ASSAY METRIC: parasite growth, % of control (lower = inhibition) (%)
Report the figure in % without appending any unit label.

Input: Please give measured parasite growth, % of control (lower = inhibition) of the following entry: CCc1c(O)cc(O)c(C(=O)c2ccc(OCCN3CCOCC3)c(OC)c2)c1CC(=O)N(CCOC)CCOC
Output: 11.6

Input: Please give measured parasite growth, % of control (lower = inhibition) of the following entry: CCCCCCCCCCCCc1ccc(S(=O)(=O)Nc2nncs2)cc1
Output: 80.6

Input: Please give measured parasite growth, % of control (lower = inhibition) of the following entry: Cc1cnc(Nc2ccc(CN3CCOCC3)cc2)nc1Nc1cccc(S(=O)(=O)NC(C)(C)C)c1
Output: 16.8

Input: Please give measured parasite growth, % of control (lower = inhibition) of the following entry: c1ccc2c(Oc3nc(Nc4ccc(N5CCOCC5)cc4)c4ncn(C5CCCCC5)c4n3)cccc2c1
Output: 33.7

Input: Please give measured parasite growth, % of control (lower = inhibition) of the following entry: O=C(NNC(=O)c1ccc(CNS(=O)(=O)c2ccc(F)c(Cl)c2)cc1)c1ccccc1
Output: 100

Input: Please give measured parasite growth, % of control (lower = inhibition) of the following entry: CC(=O)O[C@]1(C(C)=O)CC[C@H]2[C@@H]3C=C(C)C4=CC(=O)CC[C@]4(C)[C@@H]3CC[C@@]21C
Output: 18.8

Input: Please give measured parasite growth, % of control (lower = inhibition) of the following entry: CCCNS(=O)(=O)Nc1ncnc(OCCOc2ncc(Br)cn2)c1-c1ccc(Br)cc1
Output: 82.3

Input: Please give measured parasite growth, % of control (lower = inhibition) of the following entry: CCCCCCCN(CC)CCCC(O)c1ccc(NS(C)(=O)=O)cc1 (centres undefined)
Output: 72

Input: Please give measured parasite growth, % of control (lower = inhibition) of the following entry: Cn1cnc2c(F)c(Nc3ccc(Br)cc3F)c(C(=O)NOCCO)cc21
Output: 76.8
